target: human recombinant PDE5 protein (Homo sapiens); construct: made in house; host or cells: COS-1 cells, transient transfection with pcDNA 3.1 (+); supernatant of the homogenate, not purified; assay: Measurement of PDE5-inhibiting activity; format: biochemical; conditions: Tables A and C; read-out: Inhibiting Activity (IC50 value) PDE5
measurement_label: IC50 (µM)
Field format: number, assumed µM, no unit text.

Worked cases, answers included:
{"columns": ["compound_structure_string", "measurement_label", "unit_label", "assay_result"],
 "data": [
  ["Cc1c(C(=O)O)sc2nc(Cc3ccccc3)[nH]c(=O)c12", "IC50", "µM", 10],
  ["Cc1c(C(=O)O)sc2nc(CC3=CCCC3)[nH]c(=O)c12", "IC50", "µM", 8.59],
  ["Cc1c(C(=O)O)sc2nc(Cc3ccsc3)[nH]c(=O)c12", "IC50", "µM", 17.8],
  ["Cc1c(C(=O)O)sc2nc(Cc3cccc(C(F)(F)F)c3)[nH]c(=S)c12", "IC50", "µM", 3.51],
  ["Cc1c(C(=O)O)sc2nc(Cc3cc(Cl)ccc3F)[nH]c(=O)c12", "IC50", "µM", 5.71]
]}

Shifting focus to the compound that follows.
Data request: Report IC50 for Cc1c(C(=O)O)sc2nc(Cc3cccc(C(F)(F)F)c3)[nH]c(=O)c12 please.
Data returned: 22.2
